Values compiled from ChEMBL document CHEMBL4613213.

# Tested on: Plasmodium falciparum
# Assay Protocol: Antiplasmodial activity against Plasmodium falciparum Dd2 schizonts form infected in erythrocytes assessed as morphological defects at 0.5 uM after 48 hrs by Giemsa staining based light microscopic method
# Assay type: functional, organism-based
The source made the active and inactive calls. The rule behind the calls is not given here.
Value Type: Activity

Record excerpt, results attached:
> print(dat)
                         structure.notation  result
1  CCCCCCCC/C=C\c1c(C)c(/C=C\CCCCCCCC)c2[n+](c1C)CCCCC2  Active
2  CCCCCCCC/C=C/c1c(C)c(/C=C/CCCCCCCC)c2[n+](c1C)CCC2  Active
3  CCCCCCCCCCc1c(C)c(CCCCCCCCCC)c2[n+](c1C)CCCC2  Active
4  CCCCCCCC/C=C/c1c(C)c(/C=C/CCCCCCCC)c2[n+](c1C)CCCCC2  Active

Now, please, on to the next molecule.
For `CCCCCCCC/C=C\c1c(C)c(/C=C\CCCCCCCC)c2[n+](c1C)CCC2` , write its Activity.
Active
